B1: CPEB3 Ribozyme (parent)
chain: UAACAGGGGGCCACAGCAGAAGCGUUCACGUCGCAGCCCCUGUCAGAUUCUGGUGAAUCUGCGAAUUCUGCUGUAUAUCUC

# Variants of: B1
# experimental-protocol: self-cleavage, relative activity (ratio to wild type); higher = more cleavage; in vitro, sequencing
Use 0.3 as the dividing line for self-cleavage, with the line itself on the t side and lower values as f.

>>> class_label("A21G U49G")
"f"
>>> class_label("U78G")
"t"
>>> class_label("C40U U78C")
"t"
>>> class_label("A3G U67C")
"t"
>>> class_label("C68U U74C")
"t"
>>> class_label("U43C A47U")
"t"
>>> class_label("A65G G73C")
"t"
>>> class_label("C34G G63C")
"f"
>>> class_label("A3G C38G")
"t"
>>> class_label("G10U A35U")
"f"
>>> class_label("A3U G63A")
"t"
>>> class_label("U26A A56G")
"t"
>>> class_label("C17G U41G")
"f"
>>> class_label("A35G U69C")
"t"
>>> class_label("A20G C79G")
"t"
>>> class_label("G19A A21U")
"f"
>>> class_label("G6C G53A")
"t"
>>> class_label("A5G U54G")
"t"
>>> class_label("A35U C62U")
"f"
>>> class_label("G9A C79U")
"f"
>>> class_label("A5C A75G")
"t"
>>> class_label("G33U U49G")
"f"
>>> class_label("A2G U76A")
"t"
>>> class_label("A15U A45C")
"f"
>>> class_label("A45C G73A")
"t"
>>> class_label("U31C A75G")
"t"
>>> class_label("A28G U76G")
"t"
>>> class_label("G10A U80C")
"f"
>>> class_label("U1A G30A")
"f"
>>> class_label("C37U C71U")
"t"
>>> class_label("A15U A18U")
"f"
>>> class_label("C32A U51A")
"f"
>>> class_label("C14A U72C")
"t"
>>> class_label("A20U U31G")
"f"
>>> class_label("A57C U66C")
"f"
>>> class_label("C12G U76C")
"t"
>>> class_label("C23A U58C")
"t"
>>> class_label("A2G C79U")
"t"
>>> class_label("G61C U74A")
"t"
>>> class_label("A15G C29G")
"f"
>>> class_label("G8U G63A")
"f"
>>> class_label("A2G A64U")
"t"
>>> class_label("C68U U72C")
"t"
>>> class_label("C23U A56G")
"t"
>>> class_label("U49A U66A")
"f"
>>> class_label("G9C U25C")
"f"
>>> class_label("A2G A28G")
"t"
>>> class_label("U58C U80C")
"t"
>>> class_label("A5C U60G")
"t"
>>> class_label("G7C A13G")
"t"
>>> class_label("C11A C81G")
"t"
>>> class_label("U49A C62A")
"f"
>>> class_label("G10A G53C")
"t"
>>> class_label("A13G C37U")
"t"
>>> class_label("A18U C79A")
"t"
>>> class_label("U41G A64G")
"f"
>>> class_label("U58A G63A")
"t"
>>> class_label("G36C U60C")
"f"
>>> class_label("A15U C59G")
"f"
>>> class_label("U49C U69C")
"t"
>>> class_label("A15U C44A")
"t"
>>> class_label("G6A A45G")
"f"
>>> class_label("G8U C37U")
"f"
>>> class_label("U26C U67A")
"f"
>>> class_label("C34G C62G")
"f"
>>> class_label("U48G U80C")
"t"
>>> class_label("C39A U54C")
"f"
>>> class_label("A35G U58C")
"t"
>>> class_label("C23A U51A")
"t"
>>> class_label("C14U C79A")
"t"
>>> class_label("A13G A65U")
"t"
>>> class_label("C39U A45U")
"f"
>>> class_label("A28G C32U")
"f"
>>> class_label("U31A U80G")
"t"
>>> class_label("G22C U78A")
"f"
>>> class_label("C11A U78C")
"t"
>>> class_label("A45G G63U")
"t"
>>> class_label("A2U A47G")
"t"
>>> class_label("A18U C40A")
"f"
>>> class_label("U25C C79U")
"t"
>>> class_label("U51C A75G")
"t"
>>> class_label("A21G G46A")
"t"
>>> class_label("G19U A20U")
"t"
>>> class_label("C14G C29A")
"t"
>>> class_label("A28U U66A")
"t"
>>> class_label("G9C C71G")
"f"
>>> class_label("C12G U26C")
"f"
>>> class_label("A20C U25C")
"f"
>>> class_label("C38A A47G")
"f"
>>> class_label("U26C A57U")
"t"
